# ASSAYED TARGET: Voltage-dependent T-type calcium channel subunit alpha-1H (Homo sapiens) (UniProt O95180)
# Sequence (O95180 whole entry, looked up): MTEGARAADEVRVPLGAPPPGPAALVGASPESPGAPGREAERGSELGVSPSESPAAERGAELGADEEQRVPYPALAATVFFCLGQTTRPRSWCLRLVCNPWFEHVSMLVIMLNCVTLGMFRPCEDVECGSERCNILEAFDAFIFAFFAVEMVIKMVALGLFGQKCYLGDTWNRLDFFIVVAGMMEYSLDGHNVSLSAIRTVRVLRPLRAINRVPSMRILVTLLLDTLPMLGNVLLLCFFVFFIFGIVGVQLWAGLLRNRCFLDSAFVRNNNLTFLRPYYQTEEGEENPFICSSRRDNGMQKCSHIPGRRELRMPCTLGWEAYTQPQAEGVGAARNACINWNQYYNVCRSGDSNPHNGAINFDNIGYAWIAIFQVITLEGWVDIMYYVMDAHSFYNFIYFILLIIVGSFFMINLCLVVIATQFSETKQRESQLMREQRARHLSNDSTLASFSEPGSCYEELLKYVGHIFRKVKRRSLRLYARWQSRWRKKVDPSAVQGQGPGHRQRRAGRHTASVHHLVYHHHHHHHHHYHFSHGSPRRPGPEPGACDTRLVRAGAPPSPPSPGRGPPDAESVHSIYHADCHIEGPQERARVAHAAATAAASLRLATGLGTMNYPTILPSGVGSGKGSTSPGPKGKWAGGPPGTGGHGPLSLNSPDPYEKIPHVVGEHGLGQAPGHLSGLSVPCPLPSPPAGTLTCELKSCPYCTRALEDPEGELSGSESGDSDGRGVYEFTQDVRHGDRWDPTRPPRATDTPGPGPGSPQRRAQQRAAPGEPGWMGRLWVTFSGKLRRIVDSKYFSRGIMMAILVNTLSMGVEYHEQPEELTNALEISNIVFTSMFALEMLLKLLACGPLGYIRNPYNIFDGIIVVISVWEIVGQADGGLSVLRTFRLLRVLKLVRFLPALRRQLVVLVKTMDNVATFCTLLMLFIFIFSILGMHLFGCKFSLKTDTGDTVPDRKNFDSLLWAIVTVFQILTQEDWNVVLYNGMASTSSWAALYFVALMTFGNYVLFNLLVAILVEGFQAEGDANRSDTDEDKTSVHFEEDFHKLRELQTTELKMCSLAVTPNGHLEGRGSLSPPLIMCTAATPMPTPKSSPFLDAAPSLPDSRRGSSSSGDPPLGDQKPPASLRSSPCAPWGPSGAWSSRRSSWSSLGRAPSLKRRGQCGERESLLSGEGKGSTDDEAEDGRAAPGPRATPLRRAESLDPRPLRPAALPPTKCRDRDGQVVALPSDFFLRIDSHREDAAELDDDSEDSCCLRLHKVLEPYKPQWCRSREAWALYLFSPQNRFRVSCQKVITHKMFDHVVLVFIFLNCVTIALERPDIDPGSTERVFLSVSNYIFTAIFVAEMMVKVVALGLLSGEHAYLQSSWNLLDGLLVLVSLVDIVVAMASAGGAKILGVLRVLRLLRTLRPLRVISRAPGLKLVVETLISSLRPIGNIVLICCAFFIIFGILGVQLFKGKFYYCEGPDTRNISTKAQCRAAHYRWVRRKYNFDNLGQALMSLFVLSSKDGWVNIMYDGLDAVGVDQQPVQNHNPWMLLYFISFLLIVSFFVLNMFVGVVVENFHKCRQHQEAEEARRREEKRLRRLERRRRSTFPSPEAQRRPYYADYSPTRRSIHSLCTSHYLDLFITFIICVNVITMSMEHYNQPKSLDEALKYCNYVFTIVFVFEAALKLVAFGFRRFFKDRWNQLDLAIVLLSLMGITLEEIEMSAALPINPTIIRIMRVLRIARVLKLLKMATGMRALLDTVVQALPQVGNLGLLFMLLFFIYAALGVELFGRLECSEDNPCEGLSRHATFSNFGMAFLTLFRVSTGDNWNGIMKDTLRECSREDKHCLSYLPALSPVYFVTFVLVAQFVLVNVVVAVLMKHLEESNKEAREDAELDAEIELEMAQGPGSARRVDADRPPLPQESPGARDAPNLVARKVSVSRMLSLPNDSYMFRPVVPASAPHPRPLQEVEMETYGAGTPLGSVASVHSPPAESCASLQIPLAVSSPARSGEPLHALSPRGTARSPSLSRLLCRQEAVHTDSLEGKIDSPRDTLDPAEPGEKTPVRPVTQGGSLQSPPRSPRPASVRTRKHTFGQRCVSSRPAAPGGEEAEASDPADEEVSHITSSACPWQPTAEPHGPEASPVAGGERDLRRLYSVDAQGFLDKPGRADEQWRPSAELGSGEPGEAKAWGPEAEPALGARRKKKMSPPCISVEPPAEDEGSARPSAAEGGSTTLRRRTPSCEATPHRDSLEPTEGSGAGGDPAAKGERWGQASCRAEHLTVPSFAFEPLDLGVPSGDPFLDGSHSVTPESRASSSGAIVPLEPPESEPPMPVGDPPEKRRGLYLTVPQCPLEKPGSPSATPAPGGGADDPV
# MEASUREMENT DESCRIPTION: Cav3.2 calcium influx blockers – cell-based, Fluo-4 calcium fluorescence, FDSS, MLSMR library, primary screen (AID 449739)
# RECORDED CONDITIONS: Cav3.2-expressing cells, at 10 µM
About 4,200 (4.2%) of roughly 100,000 compounds were called active.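 Rule for the calls: active = single-dose well whose peak fluorescence ratio is a statistical outlier from its plate by either plate-standardised score or position-corrected B-score; inactive = the rest.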 This excerpt belongs to a sample that is enriched for actives.
Returns: one label drawn from active, inactive

[[record]]
molecule = "CSc1ccc(S(=O)(=O)NC2CCCCC2)cc1"
assayed_target = "Voltage-dependent T-type calcium channel subunit alpha-1H (Homo sapiens) (UniProt O95180)"
group_label = "inactive"

[[record]]
molecule = "CCOC(=O)/C(=C\\c1ccc([N+](=O)[O-])cc1)C(=O)c1cc(C(C)=O)c(Nc2ccccc2)s1"
assayed_target = "Voltage-dependent T-type calcium channel subunit alpha-1H (Homo sapiens) (UniProt O95180)"
group_label = "inactive"

[[record]]
molecule = "O=C(NCC1CCCO1)/C(=C\\c1ccco1)NC(=O)c1ccccc1 (centres undefined)"
assayed_target = "Voltage-dependent T-type calcium channel subunit alpha-1H (Homo sapiens) (UniProt O95180)"
group_label = "inactive"

[[record]]
molecule = "Cc1cc(C)cc(OCC(=O)NNC(=O)c2cc3ccccc3oc2=O)c1"
assayed_target = "Voltage-dependent T-type calcium channel subunit alpha-1H (Homo sapiens) (UniProt O95180)"
group_label = "inactive"

[[record]]
molecule = "CC1(C)CC(=O)C2=C(C1)N=C1SCCC(=O)N1C2c1ccc(C(F)(F)F)cc1 (centres undefined)"
assayed_target = "Voltage-dependent T-type calcium channel subunit alpha-1H (Homo sapiens) (UniProt O95180)"
group_label = "inactive"


For CN1CC(c2ccccc2)C2(COc3ccccc3C2=O)C12C(=O)Nc1ccccc12 (centres undefined) , what call appears in the results of this test?
inactive

And for O=C1C(=O)N(CCN2CCOCC2)C(c2ccccn2)/C1=C(/O)c1ccc(Cl)cc1 (centres undefined) ?
inactive

And for O=C(Nc1ccccc1)O/N=C1\CCCCC1c1ccc([N+](=O)[O-])cc1[N+](=O)[O-] (centres undefined) ?
inactive

And for O=C(CSCc1ccc(Cl)cc1)N1CCN(Cc2ccc3c(c2)OCO3)CC1 ?
active

And for O=C1CC2(CCCC2)Oc2ccc(Cl)cc21 ?
inactive

And for O=C(Nc1ccc(N2CCN(C(=O)c3ccccc3)CC2)c(Cl)c1)c1cccnc1 ?
inactive

And for NC(=O)N1CCCC1C(=O)Nc1ccc(Cl)c(Cl)c1 (centres undefined) ?
inactive

* * *

# ASSAYED TARGET: Voltage-dependent T-type calcium channel subunit alpha-1H (Homo sapiens)
# MEASUREMENT DESCRIPTION: Cav3.2 calcium influx blockers – cell-based, Fluo-4 calcium fluorescence, FDSS, MLSMR library, primary screen (AID 449739)
# RECORDED CONDITIONS: Cav3.2-expressing cells, at 10 µM
The whole screen tested about 100,000 compounds, of which about 4,200 (4.2%) were called active.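 Rule for the calls: active = single-dose well whose peak fluorescence ratio is a statistical outlier from its plate by either plate-standardised score or position-corrected B-score; inactive = the rest.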 The full list was thinned out, with actives kept by preference.
Returns: one label drawn from active, inactive

Solved entries (count: 3):
[[record]]
compound = "C=CCNc1nc(N)c(C(=C(C#N)C#N)c2ccccc2)s1"
assayed_target = "Voltage-dependent T-type calcium channel subunit alpha-1H (Homo sapiens)"
group_label = "inactive"

[[record]]
compound = "CCC1(CC)Cc2ccccc2-c2nc3ccccc3c(=O)n21"
assayed_target = "Voltage-dependent T-type calcium channel subunit alpha-1H (Homo sapiens)"
group_label = "inactive"

[[record]]
compound = "COC(=O)c1ccc(C2C(Oc3ccccc3C)C(=O)N2CCc2ccc(OC)c(OC)c2)cc1 (stereo unspecified)"
assayed_target = "Voltage-dependent T-type calcium channel subunit alpha-1H (Homo sapiens)"
group_label = "inactive"


For O=C(COc1ncnc2c(Cl)cc(Cl)cc12)N1CCN(S(=O)(=O)c2ccccc2)CC1 , what call appears in the results of this test?
inactive

And for Cc1nn(C)cc1C(=O)NNC(=S)Nc1ccc(Cl)cc1 ?
inactive

And for Clc1ccc(COn2c(-c3ccc(Cl)cc3Cl)nc3ncccc32)cc1 ?
active

And for CCOC(=O)C1Cn2c(nc3c(c2=O)C(C)(CC)Cc2ccccc2-3)S1 (stereo unspecified) ?
active

And for CCC(C)[C@@H](C(=O)N1CCNCC1)n1cc(CCCCN)nn1 (stereo partly specified) ?
inactive

And for CCN(CC)c1ccc(NC(=O)c2ccc(Cl)nc2)cc1 ?
inactive

And for CC1(C)Cc2ccccc2-c2nc(CN3CCOCC3)[nH]c(=O)c21 ?
inactive

And for COC(=O)c1sccc1NC(=O)CSc1ccccc1NS(=O)(=O)c1cc(Cl)ccc1Cl ?
active

Recorded values, source PubChem BioAssay AID449739.
